Measured cell viability, listed per entry for reference.
Tested on: MOLM14;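 further: after 48 h exposure read by CellTiter-Glo luminescence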
METHOD_SUMMARY: cell viability relative to vehicle control; higher = less cytotoxic
EXPERIMENTAL_SETUP: 10 µM; SRSF2 genotype: SRSF2 wt/wt
// note: answer is a bare numeric in %

Take a look at these entries with their results.
Cc1nc(Nc2ncc(C(=O)Nc3cc(NC(=O)c4cccc(C(F)(F)F)c4)ccc3C)s2)cc(N2CCN(CCO)CC2)n1    13.8
Cc1ccc2oc(=O)ccc2c1    101
CCC(=O)NS(=O)(=O)c1ccc(-c2c(-c3ccccc3)noc2C)cc1 [Parecoxib]    101
CC(C)(C)C(O)C(=Cc1ccc(Cl)cc1)n1cncn1 (stereo not given)    105
FC(F)(F)c1ccc(/C=C/c2nc(COc3ccc(CCCCn4ccnn4)cc3)co2)cc1    55.5
CC(=O)Cc1cc(=O)c2c(C)cc(O)c([C@@H]3O[C@H](CO)[C@@H](O)[C@H](O)[C@H]3O)c2o1    101
Cc1ccccc1CN1C2=NCCN2C(=O)C2=C1CCN(Cc1ccccc1)C2    103
CC1OC2OC3C(OCC(O)C3O)OC(=O)C34CCC(C)(C)CC3C3=CCC5C6(C)CC(O)C(OC7OC(CO)C(O)C(O)C7OC7OCC(OC(=O)CC(C)(O)CC(=O)OC1C(OC1OCC(O)C(O)C1O)C2O)C(O)C7O)C(C)(CO)C6CCC5(C)C3(C)CC4O (stereo not given) [Tubeimoside II]    86.1

Moving on to the next compound.
stdin: Looking for the measured cell viability of O=C(Nc1cnn2ccc(N3CCC[C@@H]3c3cc(F)ccc3F)nc12)N1CC[C@H](O)C1 [LOXO-101(sulfate)] , can you help?
stdout: 104
